Cited source for all entries: ChEMBL document CHEMBL4765482

test summary: Half life in Sprague-Dawley rat plasma at 10 mg/kg, ip measured after 0.25 to 4 hrs by LC-MS/MS analysis
Type: ADME, organism-based
setup conditions: time 0.25-4 hrs
readout kind: half-life

{"structure notation": "Cn1nc(CN2CCCC2)nc1-c1ccc(C(C)(C)C)cc1", "result": "33.6 min"}

====

test summary: Metabolic stability in human liver microsomes assessed as half-life at 10 uM incubated for 1 hr in presence of NADPH by LC-MS/MS analysis
Type: ADME, Microsome
This section presents molecules with their documented half-life at 10 µM values.
readout kind: half-life at 10 µM (h)

{"structure notation": "Cc1cc(OCCN2CCOCC2)nn1-c1ccc2ccccc2c1", "readout kind": "half-life at 10 µM", "numeric value": 1.08}
{"structure notation": "Cn1nc(CN2CCCC2)nc1-c1cccc(C2(C(F)(F)F)CC2)c1", "readout kind": "half-life at 10 µM", "numeric value": 1.46}
{"structure notation": "Cn1nc(CN2CCCC2)nc1-c1ccc(Cl)c(Cl)c1", "readout kind": "half-life at 10 µM", "numeric value": 1.41}
{"structure notation": "Cc1cc(-c2nc(CN3CCCC3)nn2C)ccc1C(F)(F)F", "readout kind": "half-life at 10 µM", "numeric value": 1.25}
{"structure notation": "Cc1ncc2n1-c1ccc(Cl)cc1C(c1ccccc1F)=NC2", "readout kind": "half-life at 10 µM", "numeric value": 0.0433}
{"structure notation": "CN(Cc1nc(-c2ccc(C(C)(C)C)cc2)n(C)n1)CC1CC1", "readout kind": "half-life at 10 µM", "numeric value": 1.02}
{"structure notation": "Cn1nc(CN2CCCC2)nc1-c1ccc(C(C)(C)C)cc1", "readout kind": "half-life at 10 µM", "numeric value": 1.99}
{"structure notation": "Cn1nc(CN2CCN(c3ccccc3)CC2)nc1-c1ccc(C(C)(C)C)cc1", "readout kind": "half-life at 10 µM", "numeric value": 0.622}
{"structure notation": "Cn1nc(CN2CCCC2)nc1-c1ccc(C2(C(F)(F)F)CC2)cc1", "readout kind": "half-life at 10 µM", "numeric value": 2.87}

====

The entries below are paired with their reported half-life at 10 µM.
test summary: Metabolic stability in rat liver microsomes assessed as half-life at 10 uM incubated for 1 hr in presence of NADPH by LC-MS/MS analysis
Type: ADME, Microsome

{"structure notation": "Cc1cc(OCCN2CCOCC2)nn1-c1ccc2ccccc2c1", "half-life at 10 µM [min]": 3.6}
{"structure notation": "Cn1nc(CN2CCCC2)nc1-c1ccc(Cl)c(Cl)c1", "half-life at 10 µM [min]": 5.1}
{"structure notation": "Cn1nc(CN2CCN(c3ccccc3)CC2)nc1-c1ccc(C(C)(C)C)cc1", "half-life at 10 µM [min]": 23.3}
{"structure notation": "Cc1cc(-c2nc(CN3CCCC3)nn2C)ccc1C(F)(F)F", "half-life at 10 µM [min]": 2.6}
{"structure notation": "Cc1ncc2n1-c1ccc(Cl)cc1C(c1ccccc1F)=NC2", "half-life at 10 µM [min]": 2.4}
{"structure notation": "Cn1nc(CN2CCCC2)nc1-c1ccc(C2(C(F)(F)F)CC2)cc1", "half-life at 10 µM [min]": 3.3}
{"structure notation": "Cn1nc(CN2CCCC2)nc1-c1cccc(C2(C(F)(F)F)CC2)c1", "half-life at 10 µM [min]": 4.8}
{"structure notation": "Cn1nc(CN2CCCC2)nc1-c1ccc(C(C)(C)C)cc1", "half-life at 10 µM [min]": 9.6}
{"structure notation": "CN(Cc1nc(-c2ccc(C(C)(C)C)cc2)n(C)n1)CC1CC1", "half-life at 10 µM [min]": 3.5}
